Data origin, for the record: paper PMC12040169

assay: in vitro; conditions: human, hela cells, % viability
Hi there, I'd appreciate the recorded viability at 28.5 h, 10 µM for every entry that follows.
Express it in %; write the number only.

Report viability at 28.5 h, 10 µM, nothing else, for this compound: CC(=O)Nc1nc(-c2cccs2)c(-c2cc(C)no2)s1
98.9

Report viability at 28.5 h, 10 µM, nothing else, for this compound: CN(CC1CCCCC1)C(=O)c1cc2ccsc2[nH]1
91.4

Report viability at 28.5 h, 10 µM, nothing else, for this compound: COC(=O)N1CCN(C(=O)c2cc(C(C)C)n3ncnc3n2)CC1
85.4

Report viability at 28.5 h, 10 µM, nothing else, for this compound: NS(=O)(=O)c1ccc(CNC2CC(=O)N(CCc3ccccc3)C2=O)cc1 (stereo not drawn)
91.7

Report viability at 28.5 h, 10 µM, nothing else, for this compound: Cc1ccc2[nH]c3c(c2c1)CCN(C=O)C31CCN(Cc2ccc(OC(F)F)cc2)CC1
101

Report viability at 28.5 h, 10 µM, nothing else, for this compound: CCCCC(=O)N1CC(n2nc(-c3ccccc3)ccc2=O)C1
95.6

Report viability at 28.5 h, 10 µM, nothing else, for this compound: S=C1NC2(CCCCC2)NC12CCCCC2
98.5

Report viability at 28.5 h, 10 µM, nothing else, for this compound: O=[N+]([O-])c1ccc(/C=N/c2cccc(-c3nc4ccccc4s3)c2)cc1
91.4

Report viability at 28.5 h, 10 µM, nothing else, for this compound: NC(=O)NC(CC(=O)N1CCOC2CCCCC21)c1cccc(Br)c1 (stereo not drawn)
93.8

* * *

experiment: in vitro; conditions: human, hela cells, % viability
VALUE TYPE: viability at 28.5 h, 10 µM (%)
Express it in %; write the number only.

Report viability at 28.5 h, 10 µM, nothing else, for this molecule: CC(=O)N1CCC(C(=O)NC(=O)NCc2ccc(F)cc2)CC1
107

Report viability at 28.5 h, 10 µM, nothing else, for this molecule: S=C(NCC1CCN(C(=S)Nc2cccc3ccccc23)CC1)Nc1cccc2ccccc12
107

Report viability at 28.5 h, 10 µM, nothing else, for this molecule: Oc1cccnc1N1CCNCC1
88.8

Report viability at 28.5 h, 10 µM, nothing else, for this molecule: Nc1ccc(Oc2ccc(-n3c(=O)c4cc5c(=O)n(-c6ccc(Oc7ccc(N)cc7)cc6)c(=O)c5cc4c3=O)cc2)cc1
104

Report viability at 28.5 h, 10 µM, nothing else, for this molecule: O=c1c2ccccc2nc(CSc2[nH]cnc3ncnc2-3)n1-c1cccc(C(F)(F)F)c1
105

Report viability at 28.5 h, 10 µM, nothing else, for this molecule: CCc1nc2c(OCc3ccc(Cl)cc3)cccn2c1N(C=O)CC(=O)N(C)C
96.4

Report viability at 28.5 h, 10 µM, nothing else, for this molecule: CCCn1ncc(CN[C@@H]2CCC[C@H]2Cc2cc(C)no2)c1C
88.7

Report viability at 28.5 h, 10 µM, nothing else, for this molecule: CC1=C(C(=O)Nc2ccccc2)C(c2ccccc2)C(C#N)=C(SCc2ccncc2)N1 (stereo not drawn)
90.2

Report viability at 28.5 h, 10 µM, nothing else, for this molecule: CCCCCc1ccc(S(=O)(=O)N2CCN(C(=O)C3CCCO3)CC2)cc1 (stereo not drawn)
101

* * *

assay: in vitro; conditions: human, hela cells, % viability
Hi there, I'd appreciate the recorded viability at 28.5 h, 10 µM for every entry that follows.
Express it in %; write the number only.

Report viability at 28.5 h, 10 µM, nothing else, for this compound: CCn1c(C)nc2cc(NC(=O)Cc3c(C)noc3C)ccc21
100

Report viability at 28.5 h, 10 µM, nothing else, for this compound: NC(=O)c1sc2nc(-c3cccnc3)ccc2c1N
66

Report viability at 28.5 h, 10 µM, nothing else, for this compound: CC1(C)[C@H](Cc2cc(COc3ccccc3)on2)C[C@@H]1NS(C)(=O)=O
89.5

Report viability at 28.5 h, 10 µM, nothing else, for this compound: CN(C)S(=O)(=O)c1cc(C(=O)O)c(Cl)cc1Cl
101

Report viability at 28.5 h, 10 µM, nothing else, for this compound: CS(=O)(=O)Nc1ncc(-c2ccco2)cc1C(=O)NCc1nc2ccccc2[nH]1
103

Report viability at 28.5 h, 10 µM, nothing else, for this compound: CC(C)C(=O)N1CC2(CCN(Cc3cc(=O)[nH]c(=O)[nH]3)CC2)c2ccccc21 [CBK144602T]
107

Report viability at 28.5 h, 10 µM, nothing else, for this compound: O=C(CC1CCN(Cc2cccc(C(F)(F)F)c2)CC1)NCc1ccc2[nH]c(=O)[nH]c2c1
97.8

Report viability at 28.5 h, 10 µM, nothing else, for this compound: C[C@@H]1CN2CCCC2CN1Cc1ccsc1 (stereo partly drawn)
110

Report viability at 28.5 h, 10 µM, nothing else, for this compound: CS(=O)(=O)c1ccc(CN2C(=O)CC3(CCN(Cc4ccccc4)CC3)C2=O)cc1 [CBK144065T]
108

* * *

Hi there, I'd appreciate the recorded viability at 28.5 h, 10 µM for every entry that follows.
assay: in vitro; settings: human, hela cells, % viability
Express it in %; write the number only.

Report viability at 28.5 h, 10 µM, nothing else, for this compound: CC1=C/C(=C(\C#N)C(N)=O)NC(c2ccccc2O)=N1
111

Report viability at 28.5 h, 10 µM, nothing else, for this compound: Cc1cc(-c2cc(=O)n(Cc3ccccc3)nc2C2CC2)on1
86.2

Report viability at 28.5 h, 10 µM, nothing else, for this compound: O=C(c1ccccc1)c1ccc(S(=O)(=O)N2CCN(Cc3ccc(O)c(F)c3)CC2)cc1
95.8

Report viability at 28.5 h, 10 µM, nothing else, for this compound: COc1ccc([C@@]23CC[C@@H](NC(=O)Nc4cc(F)c(C#N)cc4F)C[C@@H]2N(C)CC3)cc1OC [CBK073979T]
98.2

Report viability at 28.5 h, 10 µM, nothing else, for this compound: CC(=O)c1ccc(-c2cnc(N)c(NCC(C)C)n2)s1
92.8

Report viability at 28.5 h, 10 µM, nothing else, for this compound: COc1cc(/C=C2\C(=O)N(c3ccc(NC(C)=O)cc3)N=C2c2ccccc2)ccc1O
87.5

Report viability at 28.5 h, 10 µM, nothing else, for this compound: c1ccc2c(c1)NC(c1ccncc1)n1nnnc1-2 (stereo not drawn)
82.5

Report viability at 28.5 h, 10 µM, nothing else, for this compound: Cc1cc(NS(=O)(=O)c2csc3ccccc23)n(C)n1
89.5

Report viability at 28.5 h, 10 µM, nothing else, for this compound: CC(=O)c1ccc(-c2cnc(N)c(N3CCN(C)CC3)n2)s1
94.4

* * *

experiment: in vitro; settings: human, hela cells, % viability
Hi there, I'd appreciate the recorded viability at 28.5 h, 10 µM for every entry that follows.
Express it in %; write the number only.

Report viability at 28.5 h, 10 µM, nothing else, for this compound: CCOc1ccc(S(=O)(=O)N2CCCN(CCCC#N)CC2)c2cccnc12
98.5

Report viability at 28.5 h, 10 µM, nothing else, for this compound: S=c1[nH]nc(Nc2ccccc2)n1-c1ccccc1
123

Report viability at 28.5 h, 10 µM, nothing else, for this compound: OCCNc1cncc(-c2ccc3c(c2)OCO3)n1
85.6

Report viability at 28.5 h, 10 µM, nothing else, for this compound: COc1ccc([C@@]23CCCN(C(=O)Nc4ccc(C)c(F)c4)C[C@@H]2N(C)CC3)cc1OC [CBK056680T]
110

Report viability at 28.5 h, 10 µM, nothing else, for this compound: CCOC(=O)c1ccc(NC(=O)C(C)Oc2ccccc2C)cc1 (stereo not drawn)
102

Report viability at 28.5 h, 10 µM, nothing else, for this compound: CNc1nc(Cn2ncc(N3CCCN(C)CC3)cc2=O)cs1
92.8

Report viability at 28.5 h, 10 µM, nothing else, for this compound: CC(C)NC(=O)N[C@H]1CCN2C(=O)N(c3cccc4nsnc34)C(=O)[C@@H]2C1
111

Report viability at 28.5 h, 10 µM, nothing else, for this compound: Fc1cccc(Cl)c1CNc1ccc(CNc2ncn[nH]2)cc1
93.1

Report viability at 28.5 h, 10 µM, nothing else, for this compound: CC(=O)Nc1cccc(-c2cncc(NCCc3c[nH]c4ccccc34)n2)c1
97.9

* * *

test: in vitro; conditions: human, hela cells, % viability
VALUE TYPE: viability at 28.5 h, 10 µM (%)
Express it in %; write the number only.

Report viability at 28.5 h, 10 µM, nothing else, for this compound: C=CCn1c(SCC(=O)O)nnc1-c1ccc([N+](=O)[O-])cc1
88.6

Report viability at 28.5 h, 10 µM, nothing else, for this compound: c1cncc(-c2nnc(SCc3nc4ccccc4[nH]3)o2)c1
98.1

Report viability at 28.5 h, 10 µM, nothing else, for this compound: Cc1[nH]c2c(C(=O)O)cccc2c1-c1ccccc1
103

Report viability at 28.5 h, 10 µM, nothing else, for this compound: COc1cc2c(cc1OC)/C(=C(\C(=O)Nc1ccccc1)C(=O)N1CCCCC1)NC(C)(C)C2
94.5

Report viability at 28.5 h, 10 µM, nothing else, for this compound: c1ccc2sc(CCCCc3nc4ccccc4s3)nc2c1
92.5

Report viability at 28.5 h, 10 µM, nothing else, for this compound: Cc1nnc(NC(=O)Cc2ccc(F)cc2)s1
103

Report viability at 28.5 h, 10 µM, nothing else, for this compound: CCCCCNC(=N)NC1Cc2ccccc2C1 [CBK036321T]
98.8

Report viability at 28.5 h, 10 µM, nothing else, for this compound: CC(C)(C)c1cc(CCCOC(=O)CNc2ccccc2)cc(C(C)(C)C)c1O
101

Report viability at 28.5 h, 10 µM, nothing else, for this compound: CCOC(=O)c1[nH]c2ccccc2c1NC(=O)c1cc(F)cc(Cl)c1
95.4

Report viability at 28.5 h, 10 µM, nothing else, for this compound: CC(C)Cc1cc(CNS(=O)(=O)Cc2ccccc2F)on1
96.6

Report viability at 28.5 h, 10 µM, nothing else, for this compound: c1ccc(Oc2cccc(OCCCN3CCCCC3)c2)cc1
95.2

Report viability at 28.5 h, 10 µM, nothing else, for this compound: CC(C)c1nn(C)c(N(C)C)c1CNCc1cscn1 [CBK304321C]
84.4

Report viability at 28.5 h, 10 µM, nothing else, for this compound: COc1ccc(CC(=O)N2CCN(Cc3ccco3)C[C@H]2C)cc1
96

Report viability at 28.5 h, 10 µM, nothing else, for this compound: O=C(c1cccnc1)N1CCCC(c2cc3ccccc3cn2)C1 (centres unmarked)
98.6

Report viability at 28.5 h, 10 µM, nothing else, for this compound: O=c1[nH]cnc2c([C@@H]3O[C@H](CO)[C@H](O)C3O)n[nH]c12 (some centres unmarked)
98.1

Report viability at 28.5 h, 10 µM, nothing else, for this compound: CCC#CC(=O)Nc1ccc(N2CCNCC2)nc1 [CBK004746T]
101

Report viability at 28.5 h, 10 µM, nothing else, for this compound: O=C1NC/C=C/CC2(CCN(Cc3ccccc3)CC2)C(=O)NCCOc2ccccc21
103

Report viability at 28.5 h, 10 µM, nothing else, for this compound: Cc1c(C(=O)O)cccc1N1C(=O)c2ccc([N+](=O)[O-])cc2C1=O
99.9

Report viability at 28.5 h, 10 µM, nothing else, for this compound: O=C(c1nccs1)C1CCN(C(=O)c2cc(F)cc(F)c2)CC1
96.9

Report viability at 28.5 h, 10 µM, nothing else, for this compound: CN(CCc1ccccc1)Cc1nc2ccccc2c(=O)[nH]1
98.7
